This collection of values is drawn from patent US20250304596A1.

- tested-on: HiBit-BRG1 fusion protein (Homo sapiens, UniProt P51532)
- Construct: expressed in transfected cells
- Sequence (P51532 whole entry, the tested form may be a part): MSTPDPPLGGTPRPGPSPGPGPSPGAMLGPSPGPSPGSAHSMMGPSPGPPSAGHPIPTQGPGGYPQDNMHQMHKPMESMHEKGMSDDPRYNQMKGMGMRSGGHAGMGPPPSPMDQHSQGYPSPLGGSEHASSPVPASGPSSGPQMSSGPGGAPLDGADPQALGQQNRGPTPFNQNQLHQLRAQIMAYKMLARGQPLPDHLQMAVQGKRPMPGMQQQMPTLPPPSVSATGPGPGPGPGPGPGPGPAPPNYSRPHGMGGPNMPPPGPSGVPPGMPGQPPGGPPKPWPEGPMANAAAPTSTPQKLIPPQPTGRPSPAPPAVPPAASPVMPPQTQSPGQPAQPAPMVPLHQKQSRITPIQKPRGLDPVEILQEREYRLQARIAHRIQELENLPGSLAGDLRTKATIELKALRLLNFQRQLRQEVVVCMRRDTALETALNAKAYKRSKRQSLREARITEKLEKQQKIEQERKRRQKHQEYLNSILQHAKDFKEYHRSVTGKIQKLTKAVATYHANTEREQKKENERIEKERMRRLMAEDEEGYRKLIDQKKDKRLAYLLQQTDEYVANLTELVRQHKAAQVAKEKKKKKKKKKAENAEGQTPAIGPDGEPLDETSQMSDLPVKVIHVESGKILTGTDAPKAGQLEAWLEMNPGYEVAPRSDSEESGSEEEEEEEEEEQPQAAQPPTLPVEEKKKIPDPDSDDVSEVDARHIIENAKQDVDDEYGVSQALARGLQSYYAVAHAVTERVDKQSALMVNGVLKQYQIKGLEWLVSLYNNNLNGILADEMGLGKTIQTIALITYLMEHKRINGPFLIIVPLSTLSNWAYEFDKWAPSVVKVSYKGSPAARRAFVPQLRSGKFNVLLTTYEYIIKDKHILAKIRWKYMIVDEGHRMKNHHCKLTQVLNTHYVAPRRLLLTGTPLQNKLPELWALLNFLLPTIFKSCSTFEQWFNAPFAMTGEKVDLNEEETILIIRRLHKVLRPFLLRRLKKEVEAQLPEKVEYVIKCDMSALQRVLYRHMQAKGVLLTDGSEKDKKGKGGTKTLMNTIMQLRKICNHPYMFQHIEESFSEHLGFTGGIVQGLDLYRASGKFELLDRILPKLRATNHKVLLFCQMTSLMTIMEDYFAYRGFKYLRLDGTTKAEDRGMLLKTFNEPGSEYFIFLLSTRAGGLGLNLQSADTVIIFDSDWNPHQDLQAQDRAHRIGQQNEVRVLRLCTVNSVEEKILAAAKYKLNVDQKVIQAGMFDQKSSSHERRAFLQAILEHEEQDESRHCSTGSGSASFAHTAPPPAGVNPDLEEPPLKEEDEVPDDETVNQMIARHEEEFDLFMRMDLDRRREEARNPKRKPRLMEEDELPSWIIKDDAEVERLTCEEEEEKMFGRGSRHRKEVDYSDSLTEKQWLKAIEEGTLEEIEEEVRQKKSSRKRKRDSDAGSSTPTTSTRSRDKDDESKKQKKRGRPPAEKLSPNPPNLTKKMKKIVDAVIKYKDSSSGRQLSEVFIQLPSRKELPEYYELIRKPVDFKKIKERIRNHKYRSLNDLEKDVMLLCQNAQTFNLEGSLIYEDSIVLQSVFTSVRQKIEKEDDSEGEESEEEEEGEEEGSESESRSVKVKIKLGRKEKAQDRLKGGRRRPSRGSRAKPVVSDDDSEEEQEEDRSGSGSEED
- test-details: HiBiT-BRG1 cell-based degradation assay (Nano-Glo HiBiT Lytic Detection, 24 h)
- test-context: stable HeLa cell line expressing HiBit-BRG1 and LgBit, read-out: BRG1 HiBit Degradation Maximum (%)
Provide the recorded Dmax for the entries that follow.

Task item: Please look up its Dmax: Cc1ncsc1-c1ccc([C@H](C)NC(=O)[C@@H]2C[C@@H](O)CN2C(=O)[C@@H](c2cc(N3CC[C@@H](c4cc5nnc(-c6ccccc6O)cc5s4)C3)no2)C(C)C)cc1
Reply: < 50%

Task item: Again, but for Cc1cc(N2CC[C@H](c3sc4nnc(-c5ccccc5O)cc4c3C)C2)ncc1-c1cc([C@H](C(=O)N2C[C@H](O)C[C@H]2C(=O)N[C@@H](C)c2ccc(-c3scnc3C)cc2)C(C)C)on1
Reply: < 50%

Task item: Same again, this time with Cc1ncsc1-c1ccc([C@H](C)NC(=O)[C@@H]2C[C@@H](O)CN2C(=O)[C@@H](c2cc(Oc3ccnc(N4CCC(c5sc6nnc(-c7ccccc7O)cc6c5C)CC4)n3)no2)C(C)C)cc1 (single isomer, unassigned)
Reply: < 50%

Task item: Also Cc1ncsc1-c1ccc([C@H](C)NC(=O)[C@@H]2C[C@@H](O)CN2C(=O)[C@@H](c2cc(-c3cnc(N4CC[C@H](c5cc6nnc(-c7ccccc7O)cc6s5)C4)nc3)no2)C(C)C)cc1 ?
Reply: > 50%

Task item: Next: Cc1ncsc1-c1ccc([C@H](C)NC(=O)[C@@H]2C[C@@H](O)CN2C(=O)[C@@H](c2cc(N3CC[C@@H](c4sc5nnc(-c6ccccc6O)cc5c4C)C3)no2)C(C)C)cc1
Reply: > 50%

Task item: Now this one: Cc1ncsc1-c1ccc([C@H](C)NC(=O)[C@@H]2C[C@@H](O)CN2C(=O)[C@@H](c2cc(N3CC4(CCC(c5cc6cc(-c7ccccc7O)nnc6s5)CC4)C3)no2)C(C)C)cc1
Reply: > 75%

Task item: Check Cc1ncsc1-c1ccc([C@H](C)NC(=O)[C@@H]2C[C@@H](O)CN2C(=O)[C@@H](c2cc(-c3cnc(N4CC5(CC(c6sc7nnc(-c8ccccc8O)cc7c6C)C5)C4)nc3)no2)C(C)C)cc1 too.
Reply: < 50%

Task item: Try Cc1ncsc1-c1ccc([C@H](C)NC(=O)[C@@H]2C[C@@H](O)CN2C(=O)[C@@H](c2cc(N3CCC4(CC3)CC(c3cc5cc(-c6ccccc6O)nnc5s3)C4)no2)C(C)C)cc1 next.
Reply: > 75%

Task item: Next up: Cc1ncsc1-c1ccc([C@H](C)NC(=O)[C@@H]2C[C@@H](O)CN2C(=O)[C@@H](c2cc(-c3cnc(N4C[C@H]5C[C@@H](C4)[C@@H]5c4cc5cc(-c6ccccc6O)nnc5s4)nc3)no2)C(C)C)cc1
Reply: < 50%

Task item: And for Cc1nc(N2CC[C@@H](c3sc4nnc(-c5ccccc5O)cc4c3C)C2)ccc1-c1cc([C@H](C(=O)N2C[C@H](O)C[C@H]2C(=O)N[C@@H](C)c2ccc(-c3scnc3C)cc2)C(C)C)on1 ?
Reply: < 50%

Task item: Cool, now Cc1ncsc1-c1ccc([C@H](C)NC(=O)[C@@H]2C[C@@H](O)CN2C(=O)[C@@H](c2cc(-c3cnc(N4CC[C@H](c5cc6cc(-c7ccccc7O)nnc6s5)C4)nc3)no2)C(C)C)cc1
Reply: < 50%

Task item: Field entry: Cc1ncsc1-c1ccc([C@H](C)NC(=O)[C@@H]2C[C@@H](O)CN2C(=O)[C@@H](c2cc(-c3cnc(N4C[C@H]5C[C@@H]4C[C@H]5c4cc5cc(-c6ccccc6O)nnc5s4)nc3)no2)C(C)C)cc1
Reply: < 50%

Task item: Please give the result for Cc1cc(-c2cc([C@H](C(=O)N3C[C@H](O)C[C@H]3C(=O)N[C@@H](C)c3ccc(-c4scnc4C)cc3)C(C)C)on2)cnc1N1CCC(c2sc3nnc(-c4ccccc4O)cc3c2C)CC1 too.
Reply: < 50%

Task item: // same read-out, input: Cc1ncsc1-c1ccc([C@H](C)NC(=O)[C@@H]2C[C@@H](O)CN2C(=O)[C@@H](c2cc(N3CCC(c4sc5nnc(-c6ccccc6O)cc5c4C)CC3)no2)C(C)C)cc1
Reply: < 50%

Task item: Subsequent entry: Cc1nc(N2CCC(c3sc4nnc(-c5ccccc5O)cc4c3C)CC2)ccc1-c1noc(C(C(=O)N2C[C@H](O)C[C@H]2C(=O)N[C@@H](C)c2ccc(-c3scnc3C)cc2)C(C)C)c1Cl (stereo in doubt)
Reply: > 50%

Task item: Okay, and Cc1ncsc1-c1ccc([C@H](C)NC(=O)[C@@H]2C[C@@H](O)CN2C(=O)[C@@H](c2cc(-c3ncc(N4CCC(c5sc6nnc(-c7ccccc7O)cc6c5C)CC4)cn3)no2)C(C)C)cc1 ?
Reply: < 50%

Task item: Same read-out for Cc1cc(-c2cc([C@H](C(=O)N3C[C@H](O)C[C@H]3C(=O)N[C@@H](C)c3ccc(-c4scnc4C)cc3)C(C)C)on2)cnc1N1CCC(c2cc3cc(-c4ccccc4O)nnc3s2)CC1 (single isomer, unassigned) ?
Reply: < 50%

Task item: Another compound to look at: Cc1ncsc1-c1ccc([C@H](C)NC(=O)[C@@H]2C[C@@H](O)CN2C(=O)[C@@H](c2cc(N3CC4(CC(c5cc6cc(-c7ccccc7O)nnc6s5)C4)C3)no2)C(C)C)cc1 (single isomer, unassigned)
Reply: > 75%
